Listing: sensitivity (S) of selected compounds
# target-system: human serum albumin (HSA) (Homo sapiens)
# Sequence (P02768 25-609): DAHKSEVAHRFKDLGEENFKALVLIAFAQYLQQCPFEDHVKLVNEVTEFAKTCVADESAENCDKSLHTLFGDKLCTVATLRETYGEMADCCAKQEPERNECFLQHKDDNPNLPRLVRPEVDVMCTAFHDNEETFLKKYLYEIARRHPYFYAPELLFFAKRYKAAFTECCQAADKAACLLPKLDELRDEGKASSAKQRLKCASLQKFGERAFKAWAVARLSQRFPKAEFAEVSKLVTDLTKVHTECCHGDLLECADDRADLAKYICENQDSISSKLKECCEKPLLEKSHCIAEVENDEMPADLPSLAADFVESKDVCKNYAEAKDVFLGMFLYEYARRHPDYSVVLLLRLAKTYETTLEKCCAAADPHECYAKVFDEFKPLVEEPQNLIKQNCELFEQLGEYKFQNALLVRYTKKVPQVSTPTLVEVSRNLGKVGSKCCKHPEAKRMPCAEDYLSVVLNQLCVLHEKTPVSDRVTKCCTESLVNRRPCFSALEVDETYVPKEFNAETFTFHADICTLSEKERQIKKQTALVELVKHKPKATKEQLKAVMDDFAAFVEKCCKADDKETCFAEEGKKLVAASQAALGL
# test: Fluorometric squaraine-albumin binding titration
# conditions-used: slope of fluorescence intensity vs HSA concentration

compound	sensitivity (S)
CC1(C)C(=CC2=C([O-])C(=CC3=[N+](CCCc4ccccc4)c4ccccc4C3(C)C)C2=O)N(CCCc2ccccc2)c2ccccc21 [Dye 5]	209000 nM⁻¹
CNC1=C(C=C2N(CCCc3ccccc3)c3ccccc3C2(C)C)C(=O)C1=CC1=[N+](CCCc2ccccc2)c2ccccc2C1(C)C.[I-] [Dye 11]	119 µM
CC1(C)C(=CC2=C(N)C(=CC3=[N+](CCCc4ccccc4)c4ccccc4C3(C)C)C2=O)N(CCCc2ccccc2)c2ccccc21.[I-] [Dye 9]	318 µM
CC1(C)C(=CC2=C(NCc3ccc4ccc5cccc6ccc3c4c56)C(=CC3=[N+](CCCc4ccccc4)c4ccccc4C3(C)C)C2=O)N(CCCc2ccccc2)c2ccccc21.[I-] [Dye 14]	39 µM
